protocol-summary: Cytotoxicity against african green monkey Vero cells assessed as inhibition of cell growth at 300 uM after 24 hrs by resazurin dye based fluorescence assay
experimental-parameters: chlorocebus sabaeus, read-out: Activity
observable: inhibition at 24 h, 300 µM

1) O=[N+]([O-])c1ccc2nn(Cc3ccccc3)c(OCCCBr)c2c1 = < 20%
2) O=c1c2cc([N+](=O)[O-])ccc2n(CCO)n1Cc1ccccc1 = < 20%
3) CN(C)C(=O)CCCn1c2ccc([N+](=O)[O-])cc2c(=O)n1Cc1ccccc1 = < 20%
4) O=[N+]([O-])c1ccc2nn(Cc3ccccc3)c(OCCO)c2c1 = 14.7%
5) O=[N+]([O-])c1ccc2nn(Cc3ccccc3)c(OCCCO)c2c1 = 14.5%
6) COC(=O)CCOc1c2cc([N+](=O)[O-])ccc2nn1Cc1ccccc1 = < 20%

----------
protocol-summary: Cytotoxicity against mouse Cardiomyocytes after 48 hrs by Prestoblue assay
Design: species or system Cardiomyocyte
experimental-parameters: read-out: LC50
observable: CC50 at 48 h

1) O=C(Cn1ccnc1[N+](=O)[O-])NCc1ccccc1 = > 100 µM
2) O=c1c2cc([N+](=O)[O-])ccc2n(CCO)n1Cc1ccccc1 = > 100 µM

----------
protocol-summary: Selectivity index, ratio of LC50 for mouse L929 cells to IC50 for Trypanosoma cruzi CL-B5 lacZ amastigotes in mouse L929 cells
Format: toxicity, cell-based
experimental-parameters: read-out: Ratio LC50/IC50
observable: selectivity ratio

1) O=c1c2cc([N+](=O)[O-])ccc2n(CCO)n1Cc1ccccc1 = > 1160
2) O=c1c2cc([N+](=O)[O-])ccc2n(CCBr)n1Cc1ccccc1 = > 225
3) C#CCn1c2ccc([N+](=O)[O-])cc2c(=O)n1Cc1ccccc1 = 64.7
4) CNC(=O)CCCn1c2ccc([N+](=O)[O-])cc2c(=O)n1Cc1ccccc1 = > 171
5) O=c1c2cc([N+](=O)[O-])ccc2n(CCCO)n1Cc1ccccc1 = > 1024

----------
protocol-summary: Cytotoxicity against african green monkey Vero cells assessed as inhibition of cell growth after 24 hrs by resazurin dye based fluorescence assay
experimental-parameters: chlorocebus sabaeus
observable: CC50 at 24 h

1. O=c1c2cc([N+](=O)[O-])ccc2n(CCO)n1Cc1ccccc1 = > 300 µM
2. O=[N+]([O-])c1ccc2nn(Cc3ccccc3)c(OCCO)c2c1 = > 300 µM
3. O=[N+]([O-])c1ccc2nn(Cc3ccccc3)c(OCCCO)c2c1 = > 300 µM
4. Cc1ncc([N+](=O)[O-])n1CCO [METRONIDAZOLE] = > 600 µM
5. O=[N+]([O-])c1ccc2nn(Cc3ccccc3)c(OCCCBr)c2c1 = 539 µM
6. COC(=O)CCOc1c2cc([N+](=O)[O-])ccc2nn1Cc1ccccc1 = > 300 µM
7. CN(C)C(=O)CCCn1c2ccc([N+](=O)[O-])cc2c(=O)n1Cc1ccccc1 = > 300 µM

----------
Each entry below lists one item and its recorded selectivity ratio value.
protocol-summary: Selectivity index, ratio of LC50 for mouse L929 cells to IC50 for Trypanosoma cruzi CL-B5 lacZ amastigotes in mouse L929 cells
Format: toxicity, cell-based
experimental-parameters: read-out: Ratio LC50/IC50
observable: selectivity ratio

1. N#CCn1c2ccc([N+](=O)[O-])cc2c(=O)n1Cc1ccccc1 = > 73.1
2. COCCn1c2ccc([N+](=O)[O-])cc2c(=O)n1Cc1ccccc1 = > 112
3. CN(C)C(=O)CCCn1c2ccc([N+](=O)[O-])cc2c(=O)n1Cc1ccccc1 = > 474
4. C=CCn1c2ccc([N+](=O)[O-])cc2c(=O)n1Cc1ccccc1 = 122
5. O=C(Cn1ccnc1[N+](=O)[O-])NCc1ccccc1 [BENZNIDAZOLE] = > 376
6. C=Cn1c2ccc([N+](=O)[O-])cc2c(=O)n1Cc1ccccc1 = 341
7. CCOCCCn1c2ccc([N+](=O)[O-])cc2c(=O)n1Cc1ccccc1 = 51.5
8. COC(=O)CCn1c2ccc([N+](=O)[O-])cc2c(=O)n1Cc1ccccc1 = > 87.4
9. CC(=O)OCCn1c2ccc([N+](=O)[O-])cc2c(=O)n1Cc1ccccc1 = > 1024
10. CCOC(=O)CCCOc1c2cc([N+](=O)[O-])ccc2nn1Cc1ccccc1 = > 10.1

----------
Test system: Trypanosoma cruzi
protocol-summary: Antichagasic activity against Trypanosoma cruzi Y strain epimastigotes […] assessed as growth inhibition after 48 hrs by resazurin assay
Format: functional, organism-based
observable: IC50 (µM)

1) O=c1c2cc([N+](=O)[O-])ccc2n(CCO)n1Cc1ccccc1 = 3.18

----------
Ratio CC50/IC50 values by entry
protocol-summary: Selectivity index, ratio of CC50 for african green monkey Vero cells to IC50 for metronidazole-resistant Trichomonas vaginalis IR78 trophozoites
Format: functional
observable: Ratio CC50/IC50

1) O=[N+]([O-])c1ccc2nn(Cc3ccccc3)c(OCCCBr)c2c1 = 13.8
2) O=[N+]([O-])c1ccc2nn(Cc3ccccc3)c(OCCO)c2c1 = >6
3) Cc1ncc([N+](=O)[O-])n1CCO = >100
4) O=[N+]([O-])c1ccc2nn(Cc3ccccc3)c(OCCCO)c2c1 = >32.9

----------
protocol-summary: Cytotoxicity against mouse L929 cells after 48 hrs by resazurin assay
Assay type: cell-based
experimental-parameters: read-out: LC50
List of CC50 at 48 h values.
observable: CC50 at 48 h (µM)

1. C=Cn1c2ccc([N+](=O)[O-])cc2c(=O)n1Cc1ccccc1 = 160
2. CCOC(=O)CCCn1c2ccc([N+](=O)[O-])cc2c(=O)n1Cc1ccccc1 = 78.1

----------
protocol-summary: Selectivity index, ratio of LC50 for mouse L929 cells to IC50 for Trypanosoma cruzi CL-B5 lacZ epimastigotes […]
Type: toxicity, cell-based
experimental-parameters: read-out: Ratio LC50/IC50
observable: selectivity ratio

1) CNC(=O)CCCn1c2ccc([N+](=O)[O-])cc2c(=O)n1Cc1ccccc1 = > 19.3
2) O=C(Cn1ccnc1[N+](=O)[O-])NCc1ccccc1 = > 11.3
3) CC(=O)OCCn1c2ccc([N+](=O)[O-])cc2c(=O)n1Cc1ccccc1 = > 47.1
4) O=c1c2cc([N+](=O)[O-])ccc2n(CCBr)n1Cc1ccccc1 = > 120
5) CCOCCCn1c2ccc([N+](=O)[O-])cc2c(=O)n1Cc1ccccc1 = 25.9
6) COC(=O)Cn1c2ccc([N+](=O)[O-])cc2c(=O)n1Cc1ccccc1 = 4.92
7) COC(=O)C1Nc2ccc([N+](=O)[O-])cc2C(=O)N1Cc1ccccc1 (stereo unspecified) = > 1.18
8) O=c1c2cc([N+](=O)[O-])ccc2n(CCCBr)n1Cc1ccccc1 = 8.69
9) COC(=O)CN1c2ccc([N+](=O)[O-])cc2C(=O)N(Cc2ccccc2)C1C(=O)OC (stereo unspecified) = < 0.8
10) CN(C)C(=O)CCCn1c2ccc([N+](=O)[O-])cc2c(=O)n1Cc1ccccc1 = > 66.3
11) CCOC(=O)n1c2ccc([N+](=O)[O-])cc2c(=O)n1Cc1ccccc1 = 2.49
12) O=c1c2cc([N+](=O)[O-])ccc2n(CCCO)n1Cc1ccccc1 = > 152
13) O=C(OCc1ccccc1)n1c2ccc([N+](=O)[O-])cc2c(=O)n1Cc1ccccc1 = 1.97
14) O=C(c1ccccc1)n1c2ccc([N+](=O)[O-])cc2c(=O)n1Cc1ccccc1 = < 0.57
15) N#CCn1c2ccc([N+](=O)[O-])cc2c(=O)n1Cc1ccccc1 = > 21.9
16) Cc1ccc(S(=O)(=O)n2c3ccc([N+](=O)[O-])cc3c(=O)n2Cc2ccccc2)cc1 = > 8.9
17) O=[N+]([O-])c1ccc2nn(Cc3ccccc3)c(OCCCBr)c2c1 = 1.51
18) COC(=O)CCn1c2ccc([N+](=O)[O-])cc2c(=O)n1Cc1ccccc1 = > 27.9
19) CCOC(=O)CCCn1c2ccc([N+](=O)[O-])cc2c(=O)n1Cc1ccccc1 = 7.01
20) COCCn1c2ccc([N+](=O)[O-])cc2c(=O)n1Cc1ccccc1 = > 39
21) COC(=O)COc1c2cc([N+](=O)[O-])ccc2nn1Cc1ccccc1 = > 1.77

----------
protocol-summary: Cytotoxicity against mouse L929 cells after 48 hrs by resazurin assay
Type: cell-based
experimental-parameters: read-out: LC50
CC50 at 48 h for assorted molecules
observable: CC50 at 48 h

1. O=C(O)CCCn1c2ccc([N+](=O)[O-])cc2c(=O)n1Cc1ccccc1 = > 256 µM
2. O=c1c2cc([N+](=O)[O-])ccc2n(CCCBr)n1Cc1ccccc1 = 25.2 µM
3. O=[N+]([O-])c1ccc2nn(Cc3ccccc3)c(OCCOc3c4cc([N+](=O)[O-])ccc4nn3Cc3ccccc3)c2c1 = > 256 µM
4. N#CCn1c2ccc([N+](=O)[O-])cc2c(=O)n1Cc1ccccc1 = > 256 µM
5. COC(=O)CCn1c2ccc([N+](=O)[O-])cc2c(=O)n1Cc1ccccc1 = > 256 µM
6. O=C(O)CCn1c2ccc([N+](=O)[O-])cc2c(=O)n1Cc1ccccc1 = > 256 µM
7. COC(=O)CN1c2ccc([N+](=O)[O-])cc2C(=O)N(Cc2ccccc2)C1C(=O)OC (stereo not given) = 205 µM
8. O=C(OCc1ccccc1)n1c2ccc([N+](=O)[O-])cc2c(=O)n1Cc1ccccc1 = 86.1 µM
9. O=c1c2cc([N+](=O)[O-])ccc2n(CCCO)n1Cc1ccccc1 = > 256 µM
10. C=CCn1c2ccc([N+](=O)[O-])cc2c(=O)n1Cc1ccccc1 = 192 µM
11. O=c1c2cc([N+](=O)[O-])ccc2n(CCBr)n1Cc1ccccc1 = > 256 µM
12. O=c1c2cc([N+](=O)[O-])ccc2n(CCOc2c3cc([N+](=O)[O-])ccc3nn2Cc2ccccc2)n1Cc1ccccc1 = > 256 µM
13. CNC(=O)CCCn1c2ccc([N+](=O)[O-])cc2c(=O)n1Cc1ccccc1 = > 256 µM
14. O=C(Cn1ccnc1[N+](=O)[O-])NCc1ccccc1 [BENZNIDAZOLE] = > 256 µM
15. CCOC(=O)CCCOc1c2cc([N+](=O)[O-])ccc2nn1Cc1ccccc1 = > 256 µM
16. Cc1ccc(S(=O)(=O)n2c3ccc([N+](=O)[O-])cc3c(=O)n2Cc2ccccc2)cc1 = > 256 µM
17. COCCn1c2ccc([N+](=O)[O-])cc2c(=O)n1Cc1ccccc1 = > 256 µM
18. CC(=O)OCCn1c2ccc([N+](=O)[O-])cc2c(=O)n1Cc1ccccc1 = > 256 µM
19. COCCOc1c2cc([N+](=O)[O-])ccc2nn1Cc1ccccc1 = > 256 µM
20. O=[N+]([O-])c1ccc2nn(Cc3ccccc3)c(OCCCBr)c2c1 = 59 µM

meta.source: ChEMBL document CHEMBL3792306
